- System: IFNα-stimulated STAT-dependent luciferase reporter in Kit225 T cells
- test-details: Kit225 T cell assay, IFNα stimulated STAT-dependent luciferase reporter
- Assay type: cell-based, human
- details: Kit225 T cells, 200 U/mL human recombinant IFNα, 5-6 hours, luciferase; read-out: IFNα (Kit225 T Cell Inhibition Data)
value-type: IC50 (nM)

>  <substance-smiles>
CNC(=O)c1cnc(Nc2cc(C(=O)NC3CC3)ccn2)cc1Nc1ccc(Cl)cc1OC

>  <value-type>
IC50

>  <observed-value>
200

$$$$
>  <substance-smiles>
CCNC(=O)c1cnc(Nc2ccc(F)cn2)cc1Nc1ccccc1OC

>  <value-type>
IC50

>  <observed-value>
2720

$$$$
>  <substance-smiles>
CNC(=O)c1cnc(Nc2cc(N(C)Cc3ccccc3)ncn2)cc1Nc1ccccc1S(C)(=O)=O

>  <value-type>
IC50

>  <observed-value>
380

$$$$

1: CNC(=O)c1cnc(Nc2cc(C)nc(C)n2)cc1Nc1cccc(-c2ncn(CCF)n2)c1OC
2: CNC(=O)c1cnc(Nc2cc(C#N)ccn2)cc1Nc1ccc(F)cc1S(C)(=O)=O
3: CCc1ncccc1Nc1cc(Nc2cc(C)nc(C)n2)ncc1C(=O)NC
4: CCOc1cc(F)ccc1Nc1cc(Nc2ccc(N3CCOCC3)cn2)ncc1C(=O)NC
5: CNC(=O)c1cnc(Nc2ccc(F)cn2)cc1Nc1ccc(F)cc1
Returns the items ordered by IC50, from maximum to minimum. To answer, write out the labels according to the requested order.
5, 4, 3, 2, 1
